B1: SPDEF (parent)
chain: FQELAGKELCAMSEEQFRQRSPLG

# Variants of: B1
# protocol-notes: protein stability index of a GFP-peptide fusion (GPS, HEK-293T) (PSI 1-6); higher = more stable;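 note: lentivirally expressed fusions sorted by FACS into six bins by GFP to DsRed ratio, PSI derived from sequencing read proportions per bin multiplied by bin number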
# cond: c terminus: a fixed tail appended
experimental-readout: protein stability index
Quick one: just the number, no unit, thanks!

Reported protein stability index for Q19H : what is it?
2.93

Reported protein stability index for G6K : what is it?
3.03

// next entry
Reported protein stability index for Q2Y : what is it?
2.96
